# testedOn: Sialidase-3 (Homo sapiens)
# Sequence (Q9UQ49 whole entry): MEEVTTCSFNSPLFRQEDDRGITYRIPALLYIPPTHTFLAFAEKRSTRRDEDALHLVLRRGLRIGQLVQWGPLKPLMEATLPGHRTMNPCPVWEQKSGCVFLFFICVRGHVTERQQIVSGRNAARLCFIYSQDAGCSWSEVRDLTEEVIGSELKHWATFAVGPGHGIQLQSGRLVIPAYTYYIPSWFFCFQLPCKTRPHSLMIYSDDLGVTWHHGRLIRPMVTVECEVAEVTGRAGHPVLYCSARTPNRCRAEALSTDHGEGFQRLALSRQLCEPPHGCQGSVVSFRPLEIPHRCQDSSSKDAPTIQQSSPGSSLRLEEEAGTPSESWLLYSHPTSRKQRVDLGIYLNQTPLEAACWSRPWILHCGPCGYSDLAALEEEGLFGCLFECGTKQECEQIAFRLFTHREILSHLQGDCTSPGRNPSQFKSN
# protocolSummary: Inhibition of human NEU3 expressed in HEK293 cells by fluorometric high-performance liquid chromatography using ganglioside GM3 substrate
# Format: cell-based
pIC50: −log10 of the molar value.
endpointLabel: pIC50

- CC(=O)N[C@H]1[C@H]([C@H](O)[C@H](O)CO)OC(C(=O)O)=C[C@@H]1O: 4.15

====

# testedOn: Sialidase-1 (Homo sapiens, UniProt Q99519)
# protocolSummary: Inhibition of human NEU1 expressed in HEK293 cells by fluorometric high-performance liquid chromatography using 4MU-NeuAc substrate
pIC50: −log10 of the molar value.
endpointLabel: pIC50

• CC(=O)N[C@H]1[C@H]([C@H](O)[C@H](O)CO)OC(C(=O)O)=C[C@@H]1N=C(N)N [ZANAMIVIR] = 2.57

====

# testedOn: Sialidase-3 (Homo sapiens)
# protocolSummary: Inhibition of human NEU3 expressed in HEK293 cells by fluorometric high-performance liquid chromatography using 4MU-NeuAc substrate
# Format: cell-based
endpointLabel: IC50

* CCOC(=O)C1=C[C@@H](OC(CC)CC)[C@H](NC(C)=O)[C@@H](N)C1 | > 10 mM

All values here come from ChEMBL document CHEMBL1275523.
